melting point values by entry

A selection of reference data follows.
O=C(Nc1nnc(C2CC2)o1)C(c1ccccc1)c1ccccc1 :: 159 to 160 °C
Cc1cccc2[nH]c(=O)n(CCCN3CC=C(c4cccc(C(F)(F)F)c4)CC3)c(=O)c12 :: 158 to 160 °C
CCOC(=O)c1cn(C2CC2)c2nc(S(=O)(=O)c3ccc(C)cc3)c(F)cc2c1=O :: 216 to 218 °C
COc1ccc2[nH]c3cc(C(=O)O)c4c(c3c2c1)C(=O)NC4=O :: > 300 °C
CC(C)Oc1cc(-n2c(=O)cc(C(F)(F)F)n(C)c2=O)c(F)cc1Cl :: 90 to 93 °C

IN: Give a short answer stating reported melting point for "CN1CCC(Sc2ccc3[nH]c(=O)n(C)c3c2)CC1" .
OUT: 196 to 198 °C

IN: Give a short answer stating reported melting point for "C=CCNC(=O)NC(=O)c1c(Cl)cccc1[Si](C)(C)C" .
OUT: 68 to 71 °C

IN: Give a short answer stating reported melting point for CCCCc1ncc(/C=C(/C(=O)O)C(CCCC)c2cccs2)n1Cc1ccccc1Cl (stereo not drawn) .
OUT: 161 to 163 °C
